tested on: Plasma; assay: Plasma concentration in Sprague-Dawley rat at 150 umol/kg, sc qd for 4 consecutive days measured on day 2 post dose by HPLC-MS analysis; format: ADME, organism-based; conditions: in vivo
measured.quantity: concentration (nM)
Your answer should be a plain number; it is taken to be in nM.

Task: Reported concentration for COc1c(Cl)cc(-c2ccc(C(=O)c3c(F)ccc(O)c3F)s2)cc1Cl : what is it?
Result: 24

---

molecular target: CYP2C19 (Homo sapiens); assay: Inhibition of recombinant human CYP2C19 expressed in baculovirus infected insect cell microsomes at 1 uM relative to control; type: ADME
Sequence (P33261 whole entry): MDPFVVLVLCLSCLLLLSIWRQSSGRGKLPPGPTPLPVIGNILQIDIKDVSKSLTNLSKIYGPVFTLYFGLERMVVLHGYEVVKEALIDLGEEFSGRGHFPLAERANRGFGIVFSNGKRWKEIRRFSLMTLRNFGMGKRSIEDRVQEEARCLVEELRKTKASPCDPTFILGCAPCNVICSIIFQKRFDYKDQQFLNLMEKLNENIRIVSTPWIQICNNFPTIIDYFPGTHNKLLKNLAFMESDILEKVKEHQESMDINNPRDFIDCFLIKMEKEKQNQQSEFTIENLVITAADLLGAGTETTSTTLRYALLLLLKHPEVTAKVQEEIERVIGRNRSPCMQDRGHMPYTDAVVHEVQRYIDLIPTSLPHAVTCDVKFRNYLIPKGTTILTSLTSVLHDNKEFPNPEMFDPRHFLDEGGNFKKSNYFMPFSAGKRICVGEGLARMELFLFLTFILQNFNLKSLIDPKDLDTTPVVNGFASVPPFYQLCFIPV
measured.quantity: inhibition at 1 µM (%)
The figure you give is taken to be in %; do not add the unit.

Task: What value of inhibition at 1 µM has been recorded for this entry: COc1c(Cl)cc(-c2ccc(C(=O)c3c(F)ccc(O)c3F)s2)cc1Cl
Result: 27
